Source of measurements: PubChem BioAssay (NCATS)

# method.notes: qHTS of pediatric cancer cell lines to identify multiple opportunities for drug repurposing: Primary screen for Saos-2 cells (AID 1347097); further: nearly all actives have a fitted effect of over 40% in size
# particulars: Saos-2 viability, CellTiter-Glo ATP luminescence, 48 h; series mostly up to 46 µM
Records with an inconclusive call do not appear. Active and inactive are the calls of the source. The call rests on the fitted dose curve; in most records, active means well fitted cell-killing curve with a large enough effect; inconclusive means small, poorly fitted or top-dose-only effect; inactive means no such curve, though single readings can be large or run the other way.
Outcome field: choose from active, inactive

Completed entries (count: 10):
INSERT INTO results (compound, category) VALUES
  ('OCC(O)CN1CCN(c2ccccc2)CC1 (stereo not drawn)', 'inactive'),
  ('Nc1ccc(S(=O)(=O)Nc2ccccc2)cc1', 'inactive'),
  ('O=c1cc[nH]c(=O)[nH]1', 'inactive'),
  ('O=C1NS(=O)(=O)c2ccccc21', 'inactive'),
  ('COc1ccc(S(=O)(=O)Nc2nnc(CC(C)C)s2)cc1', 'inactive'),
  ('CC[C@H]1CN2CCc3cc(OC)c(OC)cc3[C@@H]2C[C@@H]1C[C@H]1NCCc2cc(OC)c(OC)cc21', 'active'),
  ('O=C(O)CC(O)C(=O)O (stereo not drawn)', 'inactive'),
  ('C=CCn1c(=O)n([C@@H]2O[C@H](CO)[C@@H](O)[C@H]2O)c2nc(N)[nH]c(=O)c21', 'inactive'),
  ('CC(=O)Oc1ccc(C2(c3ccc(OC(C)=O)cc3)C(=O)Nc3ccccc32)cc1', 'inactive'),
  ('COc1cc2[nH]c(=O)[nH]c(=O)c2cc1OC', 'inactive');

## Input Hi, sorry to bother you, what did the test record for "Cc1cc2nc3c(=O)[nH]c(=O)nc-3n(C[C@H](O)[C@H](O)[C@H](O)CO)c2cc1C" ?
## Output inactive

## Input Hi, sorry to bother you, what did the test record for "CN1CCC[C@@H]1Cc1c[nH]c2ccc(CCS(=O)(=O)c3ccccc3)cc12" ?
## Output inactive

## Input Hi, sorry to bother you, what did the test record for CCN(CC)C(C)CN1c2ccccc2Sc2ccccc21 (stereo not drawn) ?
## Output inactive

## Input Hi, sorry to bother you, what did the test record for "C[C@@H]1CCN(C(=O)[C@H](CCCN=C(N)N)NS(=O)(=O)c2cccc3c2NC[C@H](C)C3)[C@@H](C(=O)O)C1" ?
## Output inactive

## Input Hi, sorry to bother you, what did the test record for "Oc1cccc(O)c1" ?
## Output inactive

## Input Hi, sorry to bother you, what did the test record for "C[C@H](N)[C@H](O)c1cccc(O)c1" ?
## Output inactive

## Input Hi, sorry to bother you, what did the test record for "CN(N=O)C(=O)N[C@@H]1[C@@H](O)[C@H](O)[C@@H](CO)O[C@@H]1O" ?
## Output inactive
